# System: E. coli ATCC 25922
# PROCEDURE SUMMARY: Salt sensitivity assay (MIC)
# Assay type: cell-based, Escherichia coli
# COND: 1 mM MgCl2
Where no end group is shown, it is not given here.
MEASURED PARAMETER: MIC, MgCl2

Query: // MIC, MgCl2 lookup, key: RRWWWRWRW-NH2 [W8]
Response: 16 µM

Query: // MIC, MgCl2 lookup, key: WWRWRRRWW-NH2 [W2]
Response: 4 µM

Query: // MIC, MgCl2 lookup, key: WRRRRWWWW-NH2 [W11]
Response: 8 µM

Query: // MIC, MgCl2 lookup, key: WWRWWRRRW-NH2 [W1]
Response: 2 µM

Query: // MIC, MgCl2 lookup, key: LRRLRLRLL-NH2 [L3]
Response: 32 µM

Query: // MIC, MgCl2 lookup, key: LRRRRLLLL-NH2 [L11]
Response: > 64 µM

Query: // MIC, MgCl2 lookup, key: RLLLLRRLR-NH2 [L10]
Response: 32 µM

Query: // MIC, MgCl2 lookup, key: LLRLLRRRL-NH2 [L1]
Response: 8 µM

Query: // MIC, MgCl2 lookup, key: RRWWWWRRW-NH2 [W7]
Response: 4 µM

* * *

# Test system: E. coli 25922
# Format: cell-based, Escherichia coli
# COND: 25922, 24 h
Where no end group is shown, it is not given here.
MEASURED PARAMETER: MIC (µM)
# unit: µM | format: bare number

Query: // MIC lookup, key: WRRRWWWWR-NH2 [W6]
Response: 4

Query: // MIC lookup, key: WWRWWRRRW-NH2 [W1]
Response: 4

Query: // MIC lookup, key: RWWWWRRWR-NH2 [W10]
Response: 8

Query: // MIC lookup, key: RRWWWWRRW-NH2 [W7]
Response: 4

* * *

# Tested on: Gram-positive bacteria
# COND: geometric mean of MBCs, 7 Gram-positive strains (Table 2)
Where no end group is shown, it is not given here.
Is GM MBC at least 70 µM? Then Y. If not, N.

Query: Does the substance LRRRLLLLR-NH2 [L6] have recorded GM MBC that is 70 µM or more?
Response: Y

Query: Does the substance LLLRRRRLL-NH2 [L4] have recorded GM MBC that is 70 µM or more?
Response: Y

Query: Does the substance RLRLRRLLL-NH2 [L9] have recorded GM MBC that is 70 µM or more?
Response: Y

Query: Does the substance LRRLRLLRL-NH2 [L12] have recorded GM MBC that is 70 µM or more?
Response: Y

Query: Does the substance LLRLLRRRL-NH2 [L1] have recorded GM MBC that is 70 µM or more?
Response: N

Query: Does the substance LRRLRLRLL-NH2 [L3] have recorded GM MBC that is 70 µM or more?
Response: Y

Query: Does the substance RLLLLRRLR-NH2 [L10] have recorded GM MBC that is 70 µM or more?
Response: Y

Query: Does the substance RRLLLLRRL-NH2 [L7] have recorded GM MBC that is 70 µM or more?
Response: Y

Query: Does the substance RLRLRLRLL-NH2 [L5] have recorded GM MBC that is 70 µM or more?
Response: N

Query: Does the substance RRLLLRLRL-NH2 [L8] have recorded GM MBC that is 70 µM or more?
Response: N

Source: paper PMC7725003
